- tgt: T1, mouse PCSK9 (mouse, UniProt Q80W65 35-694, limits assumed)
- T1 construct: also called mPCSK9; msPCK9
- protocol_text: SPR Biacore 3000, KD at pH 5.5 over KD at pH 7.4
value_kind: KD ratio pH 5.5/7.4
Provide a numeric answer; units are not to be included.

Sample records with KD ratio pH 5.5/7.4:
[[record]]
binder = "6L21H2335 (antibody, V domains shown) VH: QVQLVQSGAEVKKPGASVKVSCKASGYTFTSYYMHWVRQAPGQGLEWMGEIHPFGGRTNYNEKFKSRVTMTRDTSTSTVYMELSSLRSEDTAVYYCARERPLHASDLWGQGTTVTVSS VL: DIQMTQSPSSLSASVGDRVTITCRASQGISSALAWYQQKPGKAPKLLIYHASYRYTGVPSRFSGSGSGTDFTFTISSLQPEDIATYYCQQRYSLWRTFGQGTKLEIK"
value_kind = "KD ratio pH 5.5/7.4"
value = 2.4

[[record]]
binder = "6L1721 (antibody, V domains shown, L1L3-based mutant; Tested as full-length IgG) VH: QVQLVQSGAEVKKPGASVKVSCKASGYTFTSYYMHWVRQAPGQGLEWMGEISPFGGRTNYNEKFKSRVTMTRDTSTSTVYMELSSLRSEDTAVYYCARERPLYASDLWGQGTTVTVSS VL: DIQMTQSPSSLSASVGDRVTITCRASQGIHSALAWYQQKPGKAPKLLIYHASYRYTGVPSRFSGSGSGTDFTFTISSLQPEDIATYYCQQRYSLWRTFGQGTKLEIK"
value_kind = "KD ratio pH 5.5/7.4"
value = 2

[[record]]
binder = "5L1724H23_6L3 (antibody, V domains shown, Only CDRs printed; Full-length IgG) VH: QVQLVQSGAEVKKPGASVKVSCKASGYTFTSYYMHWVRQAPGQGLEWMGEIHPSGGRTNYNEKFKSRVTMTRDTSTSTVYMELSSLRSEDTAVYYCARERPLYAMDYWGQGTTVTVSS VL: DIQMTQSPSSLSASVGDRVTITCKASQDVHTAVAWYQQKPGKAPKLLIYSASHRYTGVPSRFSGSGSGTDFTFTISSLQPEDIATYYCQQRYSLWRTFGQGTKLEIK"
value_kind = "KD ratio pH 5.5/7.4"
value = 18.4


Requested read-out: KD ratio pH 5.5/7.4. Entry: 5L1724H23_6L3H3 (antibody, V domains shown, Only CDRs printed; Full-length IgG) VH: QVQLVQSGAEVKKPGASVKVSCKASGYTFTSYYMHWVRQAPGQGLEWMGEIHPSGGRTNYNEKFKSRVTMTRDTSTSTVYMELSSLRSEDTAVYYCARERPLYASDLWGQGTTVTVSS VL: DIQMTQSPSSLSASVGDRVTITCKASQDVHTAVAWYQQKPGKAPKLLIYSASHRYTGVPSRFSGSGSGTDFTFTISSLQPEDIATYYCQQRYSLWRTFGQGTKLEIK
9.6

Cool, now 5L1721H23_6H3 (antibody, V domains shown, Only CDRs printed; Full-length IgG) VH: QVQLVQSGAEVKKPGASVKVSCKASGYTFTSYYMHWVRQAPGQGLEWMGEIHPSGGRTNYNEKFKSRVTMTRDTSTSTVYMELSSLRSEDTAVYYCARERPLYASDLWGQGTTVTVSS VL: DIQMTQSPSSLSASVGDRVTITCKASQDVHTAVAWYQQKPGKAPKLLIYHASYRYTGVPSRFSGSGSGTDFTFTISSLQPEDIATYYCQQRYSTPRTFGQGTKLEIK
13.9
